Value source: patent US20240208970A1

# assay_system: SARS-CoV-2 M^pro protease (Severe acute respiratory syndrome coronavirus 2 (2019-nCoV) (SARS-CoV-2))
# run_description: biochemical
# Format: biochemical
# test_conditions: Table 5A; M^pro 75 nM, substrate 10 μM
Readings of IC50 for the listed compounds

compound: Cc1c(Br)cncc1N1C(=O)NC2(CC(c3ccccc3)C2)C1=O (centres unmarked) [Compound 7]
lt_gt_eq: =
IC50, nM: 2000
//
compound: Cc1cccnc1CN1C(=O)NC2(CC(C(C)(C)C)C2)C1=O (centres unmarked) [Compound 9]
lt_gt_eq: >
IC50, nM: 10000
//
compound: O=C1NC2(CC(C3CCC3)C2)C(=O)N1c1cncc(F)c1 (centres unmarked) [Compound 13]
lt_gt_eq: =
IC50, nM: 6700
//
compound: Cc1c(Br)cncc1N1C(=O)NC2(CC(C3CCC3)C2)C1=O (centres unmarked) [Compound 6]
lt_gt_eq: =
IC50, nM: 2000
//
compound: CC(C)(C)C1CC2(C1)NC(=O)N(c1cncc(F)c1)C2=O (centres unmarked) [Compound 12]
lt_gt_eq: =
IC50, nM: 5500
//
compound: Cc1c(Br)cncc1N1C(=O)NC2(CC(C(C)(C)C)C2)C1=O (centres unmarked) [Compound 5]
lt_gt_eq: =
IC50, nM: 2700
//
compound: Cc1ccncc1N1C(=O)NC2(CC(c3ccccc3)C2)C1=O (centres unmarked) [Compound 11]
lt_gt_eq: =
IC50, nM: 2300
//
compound: O=C1NC2(CC(C3CCC3)C2)C(=O)N1c1cncc(Br)c1 (centres unmarked) [Compound 14]
lt_gt_eq: =
IC50, nM: 6000
